MIC values, listed per item
tested on: Taenia crassiceps; assay: Minimum inhibitory concentration to prevent all movement of cysts and evaginated scoleces of in vitro Taenia crassiceps screen after 48 h; format: functional

# annotated cases, reported MIC shown
- molecule: "O=C(c1cccc([N+](=O)[O-])c1)N1CC(=O)N2CCCc3ccccc3C2C1 (stereo not drawn)"
  MIC: "≤ 10 µg/mL"
- molecule: "CCCCCC(=O)N1CC(=O)N2CCCc3ccccc3C2C1 (stereo not drawn)"
  MIC: "> 10 µg/mL"
- molecule: "O=C(C1CCCCC1)N1CC(=O)N2CCc3ccccc3C2C1 (stereo not drawn) [PRAZIQUANTEL]"
  MIC: "≤ 0.1 µg/mL"
- molecule: "O=C(c1ccc([N+](=O)[O-])cc1)N1CC(=O)N2CCCc3ccccc3C2C1 (stereo not drawn)"
  MIC: "> 10 µg/mL"

Ask | Output MIC of O=C(c1ccc(O)cc1)N1CC(=O)N2CCCc3ccccc3C2C1 (stereo not drawn)
Reply | > 10 µg/mL

Ask | Output MIC of COc1cc2c(cc1OC)C1CN(C(=O)C3CCCCC3)CC(=O)N1CCC2 (stereo not drawn)
Reply | > 10 µg/mL

Ask | Output MIC of COc1ccc(C(=O)N2CC(=O)N3CCCc4ccccc4C3C2)cc1 (stereo not drawn)
Reply | > 10 µg/mL

Ask | Output MIC of O=C(C1CCOCC1)N1CC(=O)N2CCCc3ccccc3C2C1 (stereo not drawn)
Reply | > 10 µg/mL

###

system: Taenia crassiceps; assay: Minimum inhibitory concentration to prevent all movement of cysts and evaginated scoleces of in vitro Taenia crassiceps screen after 48 h; assay type: functional
outcome.measure: MIC

- compound: "Cl.O=C(C1CCCCC1)N1CCN2CCCc3ccccc3C2C1 (stereo unspecified)"
  measurement.target: "Taenia crassiceps"
  outcome.measure: "MIC"
  readout.value: "> 10 µg/mL"
- compound: "CC(=O)N1CC(=O)N2CCCc3ccccc3C2C1 (stereo unspecified)"
  measurement.target: "Taenia crassiceps"
  outcome.measure: "MIC"
  readout.value: "> 10 µg/mL"
- compound: "O=C(C1CCCCC1)N1CC(=S)N2CCCc3ccccc3C2C1 (stereo unspecified)"
  measurement.target: "Taenia crassiceps"
  outcome.measure: "MIC"
  readout.value: "> 10 µg/mL"
- compound: "Cc1ccc(C(=O)N2CC(=O)N3CCCc4ccccc4C3C2)cc1 (stereo unspecified)"
  measurement.target: "Taenia crassiceps"
  outcome.measure: "MIC"
  readout.value: "≤ 10 µg/mL"
- compound: "O=C(c1ccc(F)cc1)N1CC(=O)N2CCCc3ccccc3C2C1 (stereo unspecified)"
  measurement.target: "Taenia crassiceps"
  outcome.measure: "MIC"
  readout.value: "> 10 µg/mL"

Now consider the entry below.
Ask | Output MIC of Cc1ccccc1C(=O)N1CC(=O)N2CCCc3ccccc3C2C1 (stereo unspecified)
Reply | > 10 µg/mL
